Reference for the values: patent US12065471B2

Target: HLA-B*44:05 (Homo sapiens, UniProt P01889, A223V/A65T/A93T/A95T/D201E/D98Y/E176V/E187L/E204Q/E69K/G107R/H137Y/K202T/L105A/L119I/N104T/N87E/Q56L/Q94N/R106L/R155S/R180D/S101N/S121R/S35A/S48T/T118I/V36M/W191S/Y91S)
Test: MHC binding assay (UV-ligand exchange, β2m ELISA, peptide exchange yield)
Conditions: binding to HLA-B*44:05
measured_quantity: Peptide exchange (MHC class I binding score, peptide exchange yield)

Can you look up the measured Peptide exchange (MHC class I binding score, peptide exchange yield) of 78 (TEFSNHINL; listed as Homo sapiens) [compound 78] for me?
+++ (>50 = +++)

Likewise for 435 (FETEQALRL; listed as Homo sapiens) [compound 435] ?
+++ (>50 = +++)

Similarly, 299 (AEVQIARKL; listed as Homo sapiens) [compound 299] ?
+++ (>50 = +++)

----------
Biological target: HLA-B*44:05 (Homo sapiens, UniProt P01889, A223V/A65T/A93T/A95T/D201E/D98Y/E176V/E187L/E204Q/E69K/G107R/H137Y/K202T/L105A/L119I/N104T/N87E/Q56L/Q94N/R106L/R155S/R180D/S101N/S121R/S35A/S48T/T118I/V36M/W191S/Y91S)
Assay: MHC binding assay (UV-ligand exchange, β2m ELISA, peptide exchange yield)
Details: binding to HLA-B*44:05
measured_quantity: Peptide exchange (MHC class I binding score, peptide exchange yield)

A selection of reference data follows.
Name the recorded Peptide exchange (MHC class I binding score, peptide exchange yield) for 241 (QELLDIANYL; listed as Homo sapiens) [compound 241] .
++++ (>75% = ++++)

Entry 231 (AEALVDGKWQEF; listed as Homo sapiens) [compound 231] please
+++ (>50 = +++)

Same read-out for 53 (KEDNPSGHTY; listed as Homo sapiens) [compound 53] ?
+++ (>50 = +++)

Also 318 (SESSSFLKV; listed as Homo sapiens) [compound 318] ?
+++ (>50 = +++)

Also need 291 (DEQLLLRF; listed as Homo sapiens) [compound 291] , thanks.
++ (>20% = ++)

New cases:
Data request, read-out Peptide exchange (MHC class I binding score, peptide exchange yield), for 228 (LEYEAPKLY; listed as Homo sapiens) [compound 228]
++ (>20% = ++)

Record: 377 (AEDARGWTA; listed as Homo sapiens) [compound 377]
++ (>20% = ++)

Now the same for 55 (TEFHMQFSY; listed as Homo sapiens) [compound 55]
++++ (>75% = ++++)

Could you do the same for 206 (SEDPEKYYL; listed as Homo sapiens) [compound 206] , please?
+++ (>50 = +++)

----------
Target: HLA-B*44:05 (Homo sapiens, UniProt P01889, A223V/A65T/A93T/A95T/D201E/D98Y/E176V/E187L/E204Q/E69K/G107R/H137Y/K202T/L105A/L119I/N104T/N87E/Q56L/Q94N/R106L/R155S/R180D/S101N/S121R/S35A/S48T/T118I/V36M/W191S/Y91S)
Experiment: MHC binding assay (UV-ligand exchange, β2m ELISA, peptide exchange yield)
Settings: binding to HLA-B*44:05
measured_quantity: Peptide exchange (MHC class I binding score, peptide exchange yield)

Please report the recorded Peptide exchange (MHC class I binding score, peptide exchange yield) for 427 (AEMLGSVVGNW; listed as Homo sapiens) [compound 427] .
+++ (>50 = +++)

What do you get for 394 (SEILRVTLY; listed as Homo sapiens) [compound 394] ?
+++ (>50 = +++)

Next entry: 451 (REYEDGPLSL; listed as Homo sapiens) [compound 451]
+++ (>50 = +++)

And 165 (EEIEAHIAL; listed as Homo sapiens) [compound 165] ?
+++ (>50 = +++)

Next entry: 430 (RELARVVTL; listed as Homo sapiens) [compound 430]
++++ (>75% = ++++)

Can you handle 73 (GEGTLRLSW; listed as Homo sapiens) [compound 73] next?
++++ (>75% = ++++)

Repeat for the following substance: 4 (AEALGAAKKL; listed as Homo sapiens) [compound 4]
++ (>20% = ++)

Proceed to 41 (EENTGKTYF; listed as Homo sapiens) [compound 41]
+++ (>50 = +++)

Others:
# lookup: Peptide exchange (MHC class I binding score, peptide exchange yield) of 74 (AELEGALQKA; listed as Homo sapiens) [compound 74]
++ (>20% = ++)

----------
Biological target: HLA-B*44:05 (Homo sapiens, UniProt P01889, A223V/A65T/A93T/A95T/D201E/D98Y/E176V/E187L/E204Q/E69K/G107R/H137Y/K202T/L105A/L119I/N104T/N87E/Q56L/Q94N/R106L/R155S/R180D/S101N/S121R/S35A/S48T/T118I/V36M/W191S/Y91S)
Assay: MHC binding assay (UV-ligand exchange, β2m ELISA, peptide exchange yield)
Details: binding to HLA-B*44:05
measured_quantity: Peptide exchange (MHC class I binding score, peptide exchange yield)

Reference set (4 entries):
Requested field: Peptide exchange (MHC class I binding score, peptide exchange yield). Item: 181 (HEVAQDDHL; listed as Homo sapiens) [compound 181]
++ (>20% = ++)

198 (REEEANVVL; listed as Homo sapiens) [compound 198] ?
+++ (>50 = +++)

Continue with 153 (IEIILLSGSL; listed as Homo sapiens) [compound 153]
++++ (>75% = ++++)

Can you check 421 (TEDYSKQAL; listed as Homo sapiens) [compound 421] next?
+++ (>50 = +++)

Next:
Name the recorded Peptide exchange (MHC class I binding score, peptide exchange yield) for 143 (HEIIIRSHW; listed as Homo sapiens) [compound 143] .
+++ (>50 = +++)

One more substance: 84 (AETSYVKVLEY; listed as Homo sapiens) [compound 84]
+++ (>50 = +++)

----------
Biological target: HLA-B*44:05 (Homo sapiens, UniProt P01889, A223V/A65T/A93T/A95T/D201E/D98Y/E176V/E187L/E204Q/E69K/G107R/H137Y/K202T/L105A/L119I/N104T/N87E/Q56L/Q94N/R106L/R155S/R180D/S101N/S121R/S35A/S48T/T118I/V36M/W191S/Y91S)
Experiment: MHC binding assay (UV-ligand exchange, β2m ELISA, peptide exchange yield)
Settings: binding to HLA-B*44:05
measured_quantity: Peptide exchange (MHC class I binding score, peptide exchange yield)

Which measured Peptide exchange (MHC class I binding score, peptide exchange yield) value corresponds to 273 (TEFELLHQV; listed as Homo sapiens) [compound 273] ?
+++ (>50 = +++)

Would you kindly repeat that for 372 (EEYKFPSLF; listed as Homo sapiens) [compound 372] ?
+++ (>50 = +++)

Try this substance too: 3 (DEIFTNDRRW; listed as Homo sapiens) [compound 3]
++ (>20% = ++)

Now the substance 264 (RELIKAIGL; listed as Homo sapiens) [compound 264]
+++ (>50 = +++)

Now give it for 7 (SESDLVNFI; listed as Homo sapiens) [compound 7] too.
+++ (>50 = +++)

---
I would be grateful if you could share the reported Peptide exchange (MHC class I binding score, peptide exchange yield) for 384 (LDGIPTAGW; listed as Homo sapiens) [compound 384] .
+++ (>50 = +++)

Here is the next substance: 324 (QELSSIRQF; listed as Homo sapiens) [compound 324]
+++ (>50 = +++)

What do we get for 358 (TEFHGGLHY; listed as Homo sapiens) [compound 358] ?
+++ (>50 = +++)

----------
Molecular target: HLA-B*44:05 (Homo sapiens, UniProt P01889, A223V/A65T/A93T/A95T/D201E/D98Y/E176V/E187L/E204Q/E69K/G107R/H137Y/K202T/L105A/L119I/N104T/N87E/Q56L/Q94N/R106L/R155S/R180D/S101N/S121R/S35A/S48T/T118I/V36M/W191S/Y91S)
Assay: MHC binding assay (UV-ligand exchange, β2m ELISA, peptide exchange yield)
Conditions: binding to HLA-B*44:05
measured_quantity: Peptide exchange (MHC class I binding score, peptide exchange yield)

Solved cases below.
Could you share which Peptide exchange (MHC class I binding score, peptide exchange yield) value was measured for 410 (RELEEEFYSL; listed as Homo sapiens) [compound 410] ?
+++ (>50 = +++)

For 428 (AEEKAAVTSL; listed as Homo sapiens) [compound 428] then?
+++ (>50 = +++)

And what about the substance 113 (MEFKTLNKN; listed as Homo sapiens) [compound 113] ?
++ (>20% = ++)

Request: 155 (TEDARHPESW; listed as Homo sapiens) [compound 155]
++++ (>75% = ++++)

What do you get for 184 (EEQLLQKVM; listed as Homo sapiens) [compound 184] ?
++++ (>75% = ++++)

Check 182 (EELHAALSEW; listed as Homo sapiens) [compound 182] too.
++++ (>75% = ++++)

Please examine the following record next.
Returns the measured Peptide exchange (MHC class I binding score, peptide exchange yield) for the input substance. Input: 176 (GETQQHIQL; listed as Homo sapiens) [compound 176]
+++ (>50 = +++)
